Value source: patent US11396493B2

Target: PPAR Delta (Homo sapiens)
Sequence (Q03181 whole entry): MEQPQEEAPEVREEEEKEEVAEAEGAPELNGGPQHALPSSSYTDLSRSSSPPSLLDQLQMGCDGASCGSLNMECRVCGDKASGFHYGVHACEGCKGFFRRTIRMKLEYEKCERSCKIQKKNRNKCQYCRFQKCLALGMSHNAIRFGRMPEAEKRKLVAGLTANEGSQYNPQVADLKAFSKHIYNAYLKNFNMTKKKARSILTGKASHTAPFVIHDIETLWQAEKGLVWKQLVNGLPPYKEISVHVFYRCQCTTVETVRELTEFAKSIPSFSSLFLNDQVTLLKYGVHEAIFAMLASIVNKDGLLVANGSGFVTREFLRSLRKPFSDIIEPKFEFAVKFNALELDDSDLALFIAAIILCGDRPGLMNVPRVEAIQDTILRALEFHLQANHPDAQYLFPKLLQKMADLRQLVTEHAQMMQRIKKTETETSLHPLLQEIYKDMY
Assay: PathHunter NHR protein interaction test, agonist mode, PPAR Delta
Conditions: agonist mode
endpointLabel: EC50

Field request: EC50 | item: CCCc1c(OCCCOc2ccc(OCC(=O)O)cc2)ccc(C(C)=O)c1O [L-165,041, reference compound]
< 0.1 µM

Field request: EC50 | item: `CSc1ccc(C(=O)[C@@H]2CN(C(=O)Oc3ccccc3)C[C@H]2Cc2cc(C)c(OC(C)(C)C(=O)O)c(C)c2)cc1`
< 0.1 µM
